System: plasma extravasation induced by capsaicin in trachea
Assay: Inhibitory effect on plasma extravasation induced by capsaicin in trachea of guinea pigs
Type: in vivo, guinea pigs (Hartley type white male)
Details: Cavia porcellus, iv, 5 min; 0.1 mg/kg i.v., 5 min before capsaicin (150 μg/kg i.v.), guinea pig trachea, n=6
Experimental: Inhibitory effect on plasma extravasation induced by capsaicin in trachea of guinea pigs Guinea pigs (Hartley type white male guinea pigs), (n=6) were anesthetized with 35 mg/kg of pentobarbital injected intraperitoneally (i.p.), then test compounds were administered intravenously (i.v.). […] The trachea was excised, and its wet weight was measured. […] The amount of Evans' blue dye in the supernatant was quantified by measuring absorbance at […]. […]
value.type: inhibition in vivo at 0.1 mg/kg (%)
Note: unit % is implicit; provide only the numeric part.

I'd like to know its inhibition in vivo at 0.1 mg/kg. The molecule in question is "Cc1ccc(-c2c(C(=O)N(C)Cc3cc(C(F)(F)F)cc(C(F)(F)F)c3)n(C)c(=O)c3cnccc23)cc1"
35.2

I'd like to know its inhibition in vivo at 0.1 mg/kg. The molecule in question is "CN(Cc1cc(C(F)(F)F)cc(C(F)(F)F)c1)C(=O)c1c(-c2ccc(F)cc2)c2ccsc2c(=O)n1C"
76.1

I'd like to know its inhibition in vivo at 0.1 mg/kg. The molecule in question is "CN(Cc1cc(C(F)(F)F)cc(C(F)(F)F)c1)C(=O)c1c(-c2ccc(F)cc2)c2nccnc2c(=O)n1C"
71.9

I'd like to know its inhibition in vivo at 0.1 mg/kg. The molecule in question is "CN(Cc1cc(C(F)(F)F)cc(C(F)(F)F)c1)C(=O)c1c(-c2ccc(F)cc2)c2ccn(C)c2c(=O)n1C"
67.9

I'd like to know its inhibition in vivo at 0.1 mg/kg. The molecule in question is "CN(Cc1cc(C(F)(F)F)cc(C(F)(F)F)c1)C(=O)c1c(-c2ccccc2)c2c(c(=O)n1C)N(C)CCC2"
66.7

I'd like to know its inhibition in vivo at 0.1 mg/kg. The molecule in question is "CN(Cc1cc(C(F)(F)F)cc(C(F)(F)F)c1)C(=O)c1c(-c2ccccc2)c2c(c(=O)n1C)CNCC2"
48.3

I'd like to know its inhibition in vivo at 0.1 mg/kg. The molecule in question is "CN(Cc1cc(C(F)(F)F)cc(C(F)(F)F)c1)C(=O)c1c(-c2ccc(F)cc2)c2c(c(=O)n1C)CNCC2"
59.9

I'd like to know its inhibition in vivo at 0.1 mg/kg. The molecule in question is "CN(Cc1cc(C(F)(F)F)cc(C(F)(F)F)c1)C(=O)c1c(-c2ccc(F)cc2)c2c(c(=O)n1C)CCCN2"
74

I'd like to know its inhibition in vivo at 0.1 mg/kg. The molecule in question is "CN(Cc1cc(C(F)(F)F)cc(C(F)(F)F)c1)C(=O)c1c(-c2ccc(F)cc2)c2sccc2c(=O)n1C"
51.5

I'd like to know its inhibition in vivo at 0.1 mg/kg. The molecule in question is "CN(Cc1cc(C(F)(F)F)cc(C(F)(F)F)c1)C(=O)c1c(-c2ccc(F)cc2)c2scnc2c(=O)n1C"
46.9

I'd like to know its inhibition in vivo at 0.1 mg/kg. The molecule in question is "CN1CCc2c(-c3ccccc3)c(C(=O)N(C)Cc3cc(C(F)(F)F)cc(C(F)(F)F)c3)n(C)c(=O)c2C1"
52.2

I'd like to know its inhibition in vivo at 0.1 mg/kg. The molecule in question is "COc1ccc(-c2c(C(=O)N(C)Cc3cc(C(F)(F)F)cc(C(F)(F)F)c3)n(C)c(=O)c3ncccc23)cc1"
51.4

I'd like to know its inhibition in vivo at 0.1 mg/kg. The molecule in question is "CN(Cc1cc(C(F)(F)F)cc(C(F)(F)F)c1)C(=O)c1c(-c2ccc(F)cc2)c2ccncc2c(=O)n1C"
64.9
